Test system: 648629-189-R-J1-PDC spheroids with HUVEC/MSC, viability
Test: Anticancer human tumor 648629-189-R-J1-PDC patient-derived bladder carcinoma cell line growth inhibition [PI3K]
Details: second compound 0.316 µM; first compound 0.949 µM; hits give low values
I'd be grateful if you could share measured viability, T/C for these entries.

IN: Requested read-out: viability, T/C. Entry: Cn1cnc2c(F)c(Nc3ccc(Br)cc3Cl)c(C(=O)NOCCO)cc21 + CC(Nc1ccc2c(c1)OCCn1cc(N3C(=O)OCC3C(F)F)nc1-2)C(N)=O
OUT: 74.3%

IN: Could you share which viability, T/C value was measured for Cn1cnc2c(F)c(Nc3ccc(Br)cc3Cl)c(C(=O)NOCCO)cc21 + CC(Nc1ncnc2nc[nH]c12)c1cc2cccc(Cl)c2c(=O)n1-c1ccccc1 ?
OUT: 105%

IN: Requested field: viability, T/C. Item: Cn1cnc2c(F)c(Nc3ccc(Br)cc3Cl)c(C(=O)NOCCO)cc21 + COc1c(OCCCN2CCOCC2)ccc2c3n(c(=NC(=O)c4cnc(N)nc4)nc12)CCN3
OUT: 33.7%

IN: Sample Cn1cnc2c(F)c(Nc3ccc(Br)cc3Cl)c(C(=O)NOCCO)cc21 + Cc1nc(NC(=O)N2CCCC2C(N)=O)sc1-c1ccnc(C(C)(C)C(F)(F)F)c1 — what was its viability, T/C?
OUT: 81.7%

====

Provide the reported viability, T/C of each item.
System: 648629-189-R-J1-PDC spheroids with HUVEC/MSC, viability
Test: Anticancer human tumor 648629-189-R-J1-PDC cell line growth inhibition [PI3K];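 further: spheroids exposed to agents for seven days before reading; percent of vehicle control luminescence where 100% = DMSO treated spheroids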
Settings: second compound 3.16 µM; first compound 0.1 µM; hits give low values
Answer with a number only, understood to be in %.

IN: # lookup: viability, T/C of CCN1CCN(Cc2ccc(Nc3ncc(F)c(-c4cc(F)c5nc(C)n(C(C)C)c5c4)n3)nc2)CC1 + Cc1nc(NC(=O)N2CCCC2C(N)=O)sc1-c1ccnc(C(C)(C)C(F)(F)F)c1
OUT: 59.3

IN: So what does the record say about viability, T/C for CNC(=O)c1ccc(N2C(=S)N(c3ccc(C#N)c(C(F)(F)F)c3)C(=O)C2(C)C)cc1F + CC(Nc1ncnc2nc[nH]c12)c1cc2cccc(Cl)c2c(=O)n1-c1ccccc1 ?
OUT: 109

IN: What value of measured viability, T/C is listed for C=CC(=O)N1CCN(c2nc(=O)n(-c3c(C)ccnc3C(C)C)c3nc(-c4c(O)cccc4F)c(F)cc23)C(C)C1 (stereo not drawn) + Cc1nc(NC(=O)N2CCCC2C(N)=O)sc1-c1ccnc(C(C)(C)C(F)(F)F)c1 ?
OUT: 57.5

====

System: 648629-189-R-J1-PDC spheroids with HUVEC/MSC, viability
Assay: Anticancer human tumor 648629-189-R-J1-PDC cell line growth inhibition [PI3K];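 further: spheroids exposed to agents for seven days before reading; percent of vehicle control luminescence where 100% = DMSO treated spheroids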
Conditions: second compound 0.00316 µM; first compound 1 µM; hits give low values
Would you kindly list viability, T/C for each of these compounds?
Give your result in % as a bare value.

IN: Write down the reported viability, T/C of C#Cc1c(F)ccc2cc(O)cc(-c3ncc4c(N5CC6CCC(C5)N6)nc(OCC56CCCN5CC(F)C6)nc4c3F)c12 (stereo not given) + COc1c(OCCCN2CCOCC2)ccc2c3n(c(=NC(=O)c4cnc(N)nc4)nc12)CCN3 , test system: 648629-189-R-J1-PDC spheroids with HUVEC/MSC, viability.
OUT: 112

IN: Observed viability, T/C on 648629-189-R-J1-PDC spheroids with HUVEC/MSC, viability for CCN1CCN(Cc2ccc(Nc3ncc(F)c(-c4cc(F)c5nc(C)n(C(C)C)c5c4)n3)nc2)CC1 + CC(Nc1ccc2c(c1)OCCn1cc(N3C(=O)OCC3C(F)F)nc1-2)C(N)=O , please.
OUT: 119

IN: For the record CC1(C)CCC(Nc2ncc(C(F)(F)F)c(-c3c[nH]c4c(P(C)(C)=O)c(C#N)ccc34)n2)CN1 (stereo not given) + COc1c(OCCCN2CCOCC2)ccc2c3n(c(=NC(=O)c4cnc(N)nc4)nc12)CCN3 , what value of viability, T/C is listed for 648629-189-R-J1-PDC spheroids with HUVEC/MSC, viability?
OUT: 31.4

IN: Provide value of viability, T/C for this record tested with 648629-189-R-J1-PDC spheroids with HUVEC/MSC, viability: CC(C)NCC(C(=O)N1CCN(c2ncnc3c2C(C)CC3O)CC1)c1ccc(Cl)cc1 (stereo not given) + CC(Nc1ccc2c(c1)OCCn1cc(N3C(=O)OCC3C(F)F)nc1-2)C(N)=O
OUT: 54.9

IN: Request: viability, T/C, test system 648629-189-R-J1-PDC spheroids with HUVEC/MSC, viability, entry Cn1ncc(Cl)c1-c1cc(C(=O)NC(CN)Cc2cccc(F)c2)sc1Cl (stereo not given) + CC(Nc1ccc2c(c1)OCCn1cc(N3C(=O)OCC3C(F)F)nc1-2)C(N)=O
OUT: 30.1

====

Tested on: 648629-189-R-J1-PDC spheroids with HUVEC/MSC, viability
Experiment: Anticancer human tumor 648629-189-R-J1-PDC cell line growth inhibition [PI3K];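 further: spheroids exposed to agents for seven days before reading; percent of vehicle control luminescence where 100% = DMSO treated spheroids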
Conditions: second compound 0.0316 µM; first compound 0.00316 µM; hits give low values
Description: Combinatorial screen of targeted agents with the PI3K inhibitors inavolisib, alpelisib, duvelisib, and copanlisib in multi-cell type tumor spheroids A high-throughput screen of multi-cell type tumor spheroids was designed to identify active combinations of targeted small molecules and PI3K pathway inhibitors. […] Compounds. […] If the clinical Cmax for an agent had not been determined, the highest concentration tested was 10 microM. […]
MEASURED_ATTRIBUTE: viability, T/C (%)
Unit % implied. Number only.

IN: Value lookup for viability, T/C; key = Cn1ncnc1[C@H]1c2n[nH]c(=O)c3cc(F)cc(c23)N[C@@H]1c1ccc(F)cc1 + CC(Nc1ncnc2nc[nH]c12)c1cc2cccc(Cl)c2c(=O)n1-c1ccccc1
OUT: 99.8

IN: Endpoint output: viability, T/C of CC(C)n1nc(-c2ccc3oc(N)nc3c2)c2c(N)ncnc21 + COc1c(OCCCN2CCOCC2)ccc2c3n(c(=NC(=O)c4cnc(N)nc4)nc12)CCN3 . Value?
OUT: 86

IN: State the recorded viability, T/C for this entry: Cn1ncnc1[C@H]1c2n[nH]c(=O)c3cc(F)cc(c23)N[C@@H]1c1ccc(F)cc1 + CC(Nc1ccc2c(c1)OCCn1cc(N3C(=O)OCC3C(F)F)nc1-2)C(N)=O
OUT: 96

IN: Quick check: viability, T/C of CCN1CCN(Cc2ccc(Nc3ncc(F)c(-c4cc(F)c5nc(C)n(C(C)C)c5c4)n3)nc2)CC1 + CC(Nc1ccc2c(c1)OCCn1cc(N3C(=O)OCC3C(F)F)nc1-2)C(N)=O ?
OUT: 105

IN: Reported viability, T/C, molecule CC(=O)c1c(C)c2cnc(Nc3ccc(N4CCNCC4)cn3)nc2n(C2CCCC2)c1=O + CC(Nc1ccc2c(c1)OCCn1cc(N3C(=O)OCC3C(F)F)nc1-2)C(N)=O : ____
OUT: 95.9

IN: Report viability, T/C for CC(=O)c1c(C)c2cnc(Nc3ccc(N4CCNCC4)cn3)nc2n(C2CCCC2)c1=O + CC(Nc1ncnc2nc[nH]c12)c1cc2cccc(Cl)c2c(=O)n1-c1ccccc1 please.
OUT: 101

IN: Record request: viability, T/C value, item CCN1CCN(Cc2ccc(Nc3ncc(F)c(-c4cc(F)c5nc(C)n(C(C)C)c5c4)n3)nc2)CC1 + Cc1nc(NC(=O)N2CCCC2C(N)=O)sc1-c1ccnc(C(C)(C)C(F)(F)F)c1
OUT: 96.4

IN: For CCN1CCN(Cc2ccc(Nc3ncc(F)c(-c4cc(F)c5nc(C)n(C(C)C)c5c4)n3)nc2)CC1 + CC(Nc1ncnc2nc[nH]c12)c1cc2cccc(Cl)c2c(=O)n1-c1ccccc1 , what is its reported viability, T/C?
OUT: 90.1

IN: GET /values?readout=viability, T/C&item= CC(=O)c1c(C)c2cnc(Nc3ccc(N4CCNCC4)cn3)nc2n(C2CCCC2)c1=O + COc1c(OCCCN2CCOCC2)ccc2c3n(c(=NC(=O)c4cnc(N)nc4)nc12)CCN3
OUT: 106

IN: Returns the measured viability, T/C for the input molecule. Input: Cn1ncnc1[C@H]1c2n[nH]c(=O)c3cc(F)cc(c23)N[C@@H]1c1ccc(F)cc1 + Cc1nc(NC(=O)N2CCCC2C(N)=O)sc1-c1ccnc(C(C)(C)C(F)(F)F)c1
OUT: 91.2

====

Tested on: 648629-189-R-J1-PDC spheroids with HUVEC/MSC, viability
Experiment: Anticancer human tumor 648629-189-R-J1-PDC cell line growth inhibition [PI3K];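 further: spheroids exposed to agents for seven days before reading; percent of vehicle control luminescence where 100% = DMSO treated spheroids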
Conditions: second compound 3.16 µM; first compound 0.0316 µM; hits give low values
Just a reminder that ties go to not met: only viability, T/C strictly below 80% counts as met.

IN: Is viability, T/C of CC1(C)CCC(Nc2ncc(C(F)(F)F)c(-c3c[nH]c4c(P(C)(C)=O)c(C#N)ccc34)n2)CN1 (stereo not given) + CC(Nc1ncnc2nc[nH]c12)c1cc2cccc(Cl)c2c(=O)n1-c1ccccc1 strictly below 80%?
OUT: met

IN: # check: viability, T/C < 80% for CC(C)NCC(C(=O)N1CCN(c2ncnc3c2C(C)CC3O)CC1)c1ccc(Cl)cc1 (stereo not given) + Cc1nc(NC(=O)N2CCCC2C(N)=O)sc1-c1ccnc(C(C)(C)C(F)(F)F)c1
OUT: met

IN: I'd appreciate it if you could check whether CC(=O)c1c(C)c2cnc(Nc3ccc(N4CCNCC4)cn3)nc2n(C2CCCC2)c1=O + Cc1nc(NC(=O)N2CCCC2C(N)=O)sc1-c1ccnc(C(C)(C)C(F)(F)F)c1 has viability, T/C smaller than 80%.
OUT: met

IN: # TODO verify viability, T/C < 80% strictly for this compound: C=CC(=O)N1CCN(c2nc(=O)n(-c3c(C)ccnc3C(C)C)c3nc(-c4c(O)cccc4F)c(F)cc23)C(C)C1 (stereo not given) + Cc1nc(NC(=O)N2CCCC2C(N)=O)sc1-c1ccnc(C(C)(C)C(F)(F)F)c1
OUT: met

IN: Regarding CC1(C)CCC(Nc2ncc(C(F)(F)F)c(-c3c[nH]c4c(P(C)(C)=O)c(C#N)ccc34)n2)CN1 (stereo not given) + Cc1nc(NC(=O)N2CCCC2C(N)=O)sc1-c1ccnc(C(C)(C)C(F)(F)F)c1 , kindly confirm whether its viability, T/C is beneath 80%.
OUT: met

IN: Confirm or reject: viability, T/C of CC(Cn1ccc(-c2ccc(C#N)c(Cl)c2)n1)NC(=O)c1cc(C(C)O)[nH]n1 (stereo not given) + CC(Nc1ncnc2nc[nH]c12)c1cc2cccc(Cl)c2c(=O)n1-c1ccccc1 lies strictly below 80%
OUT: not met

IN: Just wondering, is viability, T/C of C#Cc1c(F)ccc2cc(O)cc(-c3ncc4c(N5CC6CCC(C5)N6)nc(OCC56CCCN5CC(F)C6)nc4c3F)c12 (stereo not given) + CC(Nc1ncnc2nc[nH]c12)c1cc2cccc(Cl)c2c(=O)n1-c1ccccc1 below 80%?
OUT: not met

IN: Problem: For the compound CCCS(=O)(=O)Nc1ccc(F)c(C(=O)c2c[nH]c3ncc(-c4ccc(Cl)cc4)cc23)c1F + CC(Nc1ncnc2nc[nH]c12)c1cc2cccc(Cl)c2c(=O)n1-c1ccccc1 , is viability, T/C under 80%?
OUT: not met

IN: Determine if CC1(C)CCC(CN2CCN(c3ccc(C(=O)NS(=O)(=O)c4ccc(NCC5CCOCC5)c([N+](=O)[O-])c4)c(Oc4cnc5[nH]ccc5c4)c3)CC2)=C(c2ccc(Cl)cc2)C1 + Cc1nc(NC(=O)N2CCCC2C(N)=O)sc1-c1ccnc(C(C)(C)C(F)(F)F)c1 shows viability, T/C strictly lower than 80%.
OUT: met
